B1: Receptor-interacting serine/threonine-protein kinase 2, residues 438 to 518; numbered along this chain, O43353 (parent)
chain: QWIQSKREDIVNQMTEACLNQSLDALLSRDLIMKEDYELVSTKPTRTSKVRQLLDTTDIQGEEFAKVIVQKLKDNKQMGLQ

Variants of: B1
Assay: abundance fitness (aPCA) (normalised: wild type 0, dead -1); higher = more abundant; growth selection in yeast, the domain comes from the species named
Conditions: Homo sapiens
OBSERVATION TYPE: abundance fitness
Give your answer as a number; write no unit.

Illustrative cases are given below, each with its answer.
[
  {
    "VARIANT DESCRIPTION": "E63R",
    "abundance fitness": -0.413
  },
  {
    "VARIANT DESCRIPTION": "V69Y",
    "abundance fitness": -0.23
  },
  {
    "VARIANT DESCRIPTION": "D36H",
    "abundance fitness": -0.194
  }
]

Lab note: "K66R" gave abundance fitness of -0.166

Input "K49Y" . Output abundance fitness: -0.625
